Answer each item with its documented fraction unbound at 2 µM.
# assay comment: Protein binding in human plasma assessed as unbound fraction at 2 uM by rapid equilibrium dialysis method
# Format: ADME, cell-free
Answers are plain numbers.

Cc1cc(-c2ccnc(Nc3cnn(C)c3)n2)ccc1CNC(=O)N1CC(CC(C)C)C1: 0.009
Cc1cc(-c2cc(N)ncn2)ccc1CNC(=O)c1cnc(C(C)(C)C)s1: 0.03

For each of the compounds below, note its fraction unbound at 2 µM.
1. Cc1cc(-c2ccnc(Nc3cnn(C)c3)n2)ccc1CNC(=O)N1CC(OC(C)C)C1
2. Cc1cc(-c2ccnc(Nc3cnn(C)c3)n2)ccc1CNC(=O)c1cnc(C(C)(C)C)s1
3. Cc1cc(-c2ccnc(Nc3cnn(C)c3)n2)ccc1CNC(=O)c1nnc(C(C)(C)C)s1
4. Cc1cc(-c2ccnc(Nc3cnn(C)c3)n2)ccc1CNC(=O)N1CCC(C(C)(C)C)C1 (centres undefined)
5. Cc1cc(-c2ccnc(Nc3cnn(C)c3)n2)ccc1CNC(=O)C1CCC(C(C)(C)C)C1 (centres undefined)

0.059
0.003
0.007
0.002
0.0007
